B1: VPS39 (parent)
chain: ITEEKVCMVCKKKIGNSAFARYPN

- Variants of: B1
- measurement.notes: protein stability index of a GFP-peptide fusion (GPS, HEK-293T) (PSI 1-6); higher = more stable;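 further: lentivirally expressed fusions sorted by FACS into six bins by GFP to DsRed ratio, PSI derived from sequencing read proportions per bin multiplied by bin number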
- experimental.setup: c terminus: a fixed tail appended
Tick Met if protein stability index is 2 or greater. Tick Not met if protein stability index is less than 2.

> print(dat)
     var    group
 1  S17M      Met
 2  K11Y      Met
 3  I14V  Not met
 4   V6E      Met
 5  I14S      Met
 6   V9H      Met
 7  R21F      Met
 8  A18M      Met
 9   V6G  Not met
10  F19H      Met
11   M8W  Not met
12  G15R      Met
13  G15E      Met
14  Y22C      Met
15   E4A  Not met
16  R21T      Met
17   C7H      Met
18  N24Y      Met
19  S17V      Met
20  K11L  Not met
